assay: in vitro; details: human, PMA-differentiated THP-1 cells
REPORTED METRIC: IC50 at 120 h

1. COc1ccc(C(=O)N2CCOCC2)cc1S(=O)(=O)N(Cc1ccccc1)CC(C)(C)C [Compound 45] | > 64.6 µM
2. COCCOCN1CNc2cc(OC)c(S(=O)(=O)N(Cc3ccccc3)Cc3ccccc3)cc2S1(=O)=O [Compound 29] | 39.8 µM
3. COc1ccc(C(=O)NC2COC2)cc1S(=O)(=O)N(Cc1ccc(F)cc1)Cc1ccc(F)cc1 [Compound 23] | > 64.6 µM

###

# Lookup of reported CC50 keyed by entry
assay: in vitro; details: human, HepG2 cells
REPORTED METRIC: CC50

1. CN(C)c1ncccc1S(=O)(=O)N(Cc1ccc(F)cc1)Cc1ccc(F)cc1 | 56.7 µM
2. COc1ccc(CN(Cc2ccc(F)cc2)S(=O)(=O)c2cc(F)ccc2F)cc1 | > 64 µM
3. COc1ccc(C#N)cc1S(=O)(=O)N(Cc1ccc(C(F)(F)F)nc1)Cc1ccc(C(F)(F)F)nc1 | > 64 µM
4. COc1ccc(C(=O)N2CCOCC2)cc1S(=O)(=O)N(Cc1ccccc1)Cc1cnc(C(F)(F)F)nc1 | > 64 µM
5. COc1ccc(Cl)cc1S(=O)(=O)N(Cc1ccccc1)CC(O)c1ccc(F)cc1 (centres unmarked) | 51.5 µM
6. O=S(=O)(c1cc(N2CCOCC2)ccc1OC(F)F)N(Cc1ccc(F)cc1)Cc1ccc(F)cc1 | > 64 µM
7. COc1ccc(N2CCN(C)CC2)cc1S(=O)(=O)N(Cc1ccc(F)cc1)Cc1ccc(F)cc1 | 26.8 µM
8. COc1ccc(C(=O)NC2COC2)cc1S(=O)(=O)N(Cc1ccc(F)cc1)Cc1ccc(F)cc1 | > 64 µM

###

test: in vitro; conditions: human, HFF-1 cells
REPORTED METRIC: CC50 (µM)

1. CNCCOc1ccc(F)cc1S(=O)(=O)N(Cc1ccc(F)cc1)Cc1ccc(F)cc1 [DNDI0003389318] | 7.25
2. COc1ccc(CN(Cc2ccc(F)cc2)S(=O)(=O)c2cc(OC)ccc2OC)cc1 [DNDI0003388087] | 2.44
3. COc1ccc(Cl)cc1S(=O)(=O)N(Cc1ccccc1)CC(O)c1ccc(F)cc1 (centres unmarked) [DNDI0003389316] | 4.75
4. COc1ccc(C(=O)N2CCOCC2)cc1S(=O)(=O)N(Cc1ccc(F)cc1)CC(C)C [DNDI0003389127] | 8.25

###

# Lookup of reported CC50 at 3 days keyed by entry
experiment: in vitro; conditions: human
REPORTED METRIC: CC50 at 3 days

1) COc1ccc(Cl)cc1S(=O)(=O)N(Cc1ccccc1)CC(O)c1ccc(F)cc1 (stereo not drawn) | 23.5 µM
2) CC(=O)O[C@H]1C(=O)[C@@]2(C)[C@H]([C@H](OC(=O)c3ccccc3)[C@]3(O)C[C@H](OC(=O)[C@H](O)[C@@H](NC(=O)c4ccccc4)c4ccccc4)C(C)=C1C3(C)C)[C@]1(OC(C)=O)CO[C@@H]1C[C@@H]2O [paclitaxel, reference compound] | < 0.01 µM
3) COc1ccc(C#N)cc1S(=O)(=O)N(Cc1ccc(C(F)(F)F)nc1)Cc1ccc(C(F)(F)F)nc1 | > 64 µM

###

system: MRC-5SV2 cells; test: Cytotoxicity assay on MRC-5SV2 cells (resazurin)
# Lookup of reported CC50 keyed by entry
REPORTED METRIC: CC50

1) CCOC(=O)c1c(C)[nH]c(C(=O)Nc2cccc(S(=O)(=O)N3CCOCC3)c2)c1C [Compound Z30001211] | 18.1 µM
2) CCCCCOc1cc(C)c(C)cc1S(=O)(=O)NC1CCCCC1 [Compound Z1201712752] | 26.1 µM
3) CCN(CC)S(=O)(=O)c1ccc(OC)c(NC(=O)CN(C)c2ccccc2)c1 [Compound Z46175669] | > 32 µM
4) CCCCNS(=O)(=O)c1cccc(NC(=O)c2ccc(C)c(OC)c2)c1 [Compound Z109591588] | > 32 µM
5) CCCCNS(=O)(=O)c1cccc(NC(=O)c2cc3ccccc3[nH]2)c1 [Compound Z88584859] | > 32 µM
6) COc1ccc(S(=O)(=O)N(C)C)cc1NC(=O)Cn1c(=O)cnc2ccccc21 [Compound Z19025005] | > 32 µM
7) CCCOc1cc(C)c(C)cc1S(=O)(=O)NC1CCCCC1 [Compound Z1198524053] | > 32 µM
8) CCOC(=O)c1c(C)[nH]c(C(=O)NNC(=O)c2cccc(S(=O)(=O)N(CC)CC)c2)c1C [Compound Z30581529] | > 32 µM
9) Cc1ccc(NC(=O)CN2CCCCc3ccccc32)cc1S(=O)(=O)N1CCOCC1 [Compound Z1318043362] | > 32 µM
10) CCCCCOc1cc(C)c(C)cc1S(=O)(=O)NC1CC(C)(C)NC(C)(C)C1 [Compound Z2035103903] | 10.9 µM
11) CCCc1c(C(=O)Nc2cccc(S(=O)(=O)NCc3ccco3)c2)[nH]c(C)c1C(C)=O [Compound Z966334826] | 12.8 µM
12) CCOc1ccc(NC(=O)c2[nH]c(C)c(C(=O)OC)c2C)cc1S(=O)(=O)N1CCCC1 [Compound Z29178369] | > 32 µM
13) CCOc1cc(S(=O)(=O)N(Cc2ccccc2)Cc2ccccc2)c(OCC)cc1C [Compound Z1198037468] | > 32 µM
14) CNC(=O)NC(=O)COc1ccc(S(N)(=O)=O)cc1 [Compound Z381095182] | > 32 µM
15) CCCCOc1cc(C)c(C(C)C)cc1S(=O)(=O)NC1CCCCC1 [Compound Z1346174753] | 3.74 µM
16) COc1ccc(S(=O)(=O)N(Cc2ccccc2C#N)Cc2ccccc2C#N)cc1OC [Compound Z220633250] | > 32 µM

###

experiment: in vitro; settings: human, HepG2 cells
REPORTED METRIC: CC50

1. COc1ccc(C(=O)N(C)CCO)cc1S(=O)(=O)N(Cc1ccc(F)cc1)Cc1ccc(F)cc1 [DNDI0003371175] | 57.6 µM
2. COc1ccc(CN(Cc2ccc(F)cc2)S(=O)(=O)c2cc(F)ccc2OCC[N+](C)(C)CC(=O)O)cc1 [DNDI0003389931] | > 64 µM
3. COc1ccc(C#N)cc1S(=O)(=O)N(Cc1ccccc1)Cc1cnc(C(F)(F)F)nc1 [DNDI0003425527] | > 64 µM
4. N#Cc1ccc(O)c(S(=O)(=O)N(Cc2ccc(F)cc2)Cc2ccc(F)cc2)c1 [DNDI0003389125] | > 64 µM
5. COc1ccc(C(=O)N2CCOCC2)cc1S(=O)(=O)N(Cc1ccccc1)CC(C)(C)C [DNDI0003407876] | > 64 µM
6. COCCNC(=O)c1ccc(OC)c(S(=O)(=O)N(Cc2ccc(F)cc2)Cc2ccc(F)cc2)c1 [DNDI0003371177] | 54.1 µM
7. O=S1(=O)c2cc(F)ccc2OCC(c2ccc(F)cc2)N1Cc1ccccc1 (stereo not shown) [DNDI0003389122] | > 64 µM
8. N#Cc1ccccc1S(=O)(=O)N(Cc1ccccc1)Cc1ccccc1 [DNDI0003389641] | > 64 µM
9. COc1ccc(S(=O)(=O)N2CCOCC2)cc1C(=O)N(Cc1ccc(F)cc1)Cc1ccc(F)cc1 [DNDI0003389643] | > 64 µM
10. COc1ccc(C(=O)N2CCN(C)CC2)cc1S(=O)(=O)N(Cc1ccc(F)cc1)Cc1ccc(F)cc1 [DNDI0003371173] | 49.5 µM
11. COc1ccc(OC)c(S(=O)(=O)N(Cc2ccc(F)cc2)Cc2cnc(OC)nc2OC)c1 [DNDI0003389321] | > 64 µM
12. COCCOCN1CNc2cc(OC)c(S(=O)(=O)N(Cc3ccccc3)Cc3ccccc3)cc2S1(=O)=O [DNDI0003425511] | 52 µM
13. COc1ccc(CN(Cc2ccc(F)cc2)S(=O)(=O)c2cc(F)ccc2OCCN(C)C)cc1 [DNDI0003378485] | 9.1 µM
14. Nc1cc(Cl)c(S(N)(=O)=O)cc1S(=O)(=O)N(Cc1ccccc1)Cc1ccccc1 [DNDI0003392145] | > 64 µM
15. COc1ccc(-c2nc(C)no2)cc1S(=O)(=O)N(Cc1ccc(F)cc1)Cc1ccc(F)cc1 [DNDI0003388085] | > 64 µM
16. COc1ccc(Cl)cc1S(=O)(=O)N(Cc1ccccc1)C(CO)c1ccc(F)cc1 (stereo not shown) [DNDI0003388149] | 15.7 µM

###

experiment: in vitro; details: human
REPORTED METRIC: CC50 at 3 days (µM)

1) COc1ccc(Cl)cc1S(=O)(=O)N(CCN(C)C)Cc1ccccc1 | 26.7
2) COc1ccc(OC)c(S(=O)(=O)N(Cc2ccccc2)C2CCNCC2)c1 | 42.2
3) COc1ccc(Cl)cc1S(=O)(=O)N(Cc1ccccc1)C(CO)c1ccc(F)cc1 (centres unmarked) | 21.6
4) COc1ccc(CN(Cc2ccc(F)cc2)S(=O)(=O)c2cc(F)ccc2OCCN(C)C)cc1 | 6.43
5) CNCCOc1ccc(F)cc1S(=O)(=O)N(Cc1ccc(F)cc1)Cc1ccc(F)cc1 | 4.22
6) COc1ccc(S(N)(=O)=O)cc1S(=O)(=O)N(Cc1ccccc1)Cc1ccccc1 | 13.3
7) COc1ccc(CNC2COC2)cc1S(=O)(=O)N(Cc1ccc(F)cc1)Cc1ccc(F)cc1 | 41.7
8) COc1ccc(CN2CCCC2)cc1S(=O)(=O)N(Cc1ccc(F)cc1)Cc1ccc(F)cc1 | 6.87
9) COc1ccc([S+](C)[O-])cc1S(=O)(=O)N(Cc1ccccc1)Cc1ccccc1 (centres unmarked) | 21.3
